# Test system: Vesicular stomatitis virus
# protocol notes: Antiviral activity against Vesicular stomatitis virus infected in human HeLa cells assessed as inhibition of virus-induced cytopathicity after 3 days
# Assay type: functional, organism-based
# stated conditions: 72 h

>  <compound>
Clc1ccc(-c2csc(N3N=C(c4ccc(Br)cc4)CC3c3ccc(OCc4ccccc4)cc3)n2)cc1 (stereo not given)

>  <EC50>
> 100 µg/mL

$$$$
>  <compound>
Cc1ccc(-c2csc(N3N=C(c4ccc(Br)cc4)CC3c3ccc(OCc4ccccc4)cc3)n2)cc1 (stereo not given)

>  <EC50>
> 100 µg/mL

$$$$
>  <compound>
O=C1CSC(N2N=C(c3ccc(Br)cc3)CC2c2ccc(OCc3ccccc3)cc2)=N1 (stereo not given)

>  <EC50>
> 100 µg/mL

$$$$
>  <compound>
Cc1ccc(-c2csc(N3N=C(c4ccccc4)CC3c3ccc(OCc4ccccc4)cc3)n2)cc1 (stereo not given)

>  <EC50>
> 100 µg/mL

$$$$
>  <compound>
Nc1ncnc2c1ncn2C[C@H](O)CO [(S)-DHPA]

>  <EC50>
> 250 µg/mL

$$$$
>  <compound>
CC(=O)N1N=C(c2ccccc2)CC1c1ccc(OCc2ccccc2)cc1 (stereo not given)

>  <EC50>
> 100 µg/mL

$$$$
>  <compound>
Cc1ccc(C2=NN(C(N)=S)C(c3ccc(OCc4ccccc4)cc3)C2)cc1 (stereo not given)

>  <EC50>
> 0.8 µg/mL

$$$$
>  <compound>
CC(=O)N1N=C(c2ccc(Br)cc2)CC1c1ccc(OCc2ccccc2)cc1 (stereo not given)

>  <EC50>
> 20 µg/mL

$$$$
>  <compound>
CC(=O)N1N=C(c2ccc(C)cc2)CC1c1ccc(OCc2ccccc2)cc1 (stereo not given)

>  <EC50>
> 4 µg/mL

$$$$
>  <compound>
CC(=O)N1N=C(c2ccc(Cl)cc2)CC1c1ccc(OCc2ccccc2)cc1 (stereo not given)

>  <EC50>
> 20 µg/mL

$$$$
